Test system: 22Rv1
experimental_details: Viability of androgen independent prostate cancer cells 22Rv1, Cell Titer Glo
Type: cell-based
condition_parameters: 22Rv1, every other day; read-out: IC50 for growth
Description: To test the anti-proliferative effect of SAH-EZH2(42-68)AC, breast (MDA-MB231) and prostate (DU145) cancer cell lines were treated with SAH-EZH2(42-68)AC at the indicated doses for 8 days and measured for viability by Cell Titer Glo®SAH-EZH2(42-68)AC was added to the culture medium once every other day. […] The cells were treated with SAH-EZH2(42-68)AC at the indicated doses for 6 days on an every other day schedule and then measured for viability using Cell Titer Glo®. […]
Bridges are numbered along the chain shown (N, C = ends). Where no end group is shown, it is not given here. [ ]: non-standard residue; d: D form. S5 = C=CCCC[C@](C)(N)C(=O)O
reported_endpoint: IC50

Request: Bench note: what IC50 did FSSNRXKILXRTXILNXEWKQRRIQPV (SEQ ID NO:56) (FSSNR[S5]KIL[S5]RT[S5]ILN[S5]EWKQRRIQPV; staple 6-10, 13-17) [SAH-EZH2(42-68)AC] show?
Response: < 1000 nM
